experimentalSystem: T1, dimeric human LTBR-Fc biotinylated (P1AE2401) (human, UniProt P36941 31-227, biotinylated in vitro)
T1 construct: bought from R&D Systems (7538-LR); also called human LTBR ECD; not shown: human IgG1 Fc-Fragment
experimentNotes: direct ELISA
experimentalReadout: max. binding (OD)
Use OD as the unit, but write only the number.

>  <binder>
P1AE9457 (antibody, human IgG1, kappa, L234A L235A, V domains shown, human IgG1 PG LALA; from transgenic rabbit immunization; also called LTBR (9457)) VH: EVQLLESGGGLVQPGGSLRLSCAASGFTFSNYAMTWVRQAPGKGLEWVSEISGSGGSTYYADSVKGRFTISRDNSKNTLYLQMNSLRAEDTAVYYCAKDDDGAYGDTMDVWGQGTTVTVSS VL: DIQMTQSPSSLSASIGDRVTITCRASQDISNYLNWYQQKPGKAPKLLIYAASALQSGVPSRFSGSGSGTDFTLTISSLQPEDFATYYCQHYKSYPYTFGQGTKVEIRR

>  <max. binding (OD)>
2.75

$$$$

Query block: // returns reported max. binding (OD) for input P1AF0079 (antibody, human IgG1, kappa, L234A L235A, V domains shown, human IgG1 PG LALA; from transgenic rabbit immunization; also called LTBR (0079)) VH: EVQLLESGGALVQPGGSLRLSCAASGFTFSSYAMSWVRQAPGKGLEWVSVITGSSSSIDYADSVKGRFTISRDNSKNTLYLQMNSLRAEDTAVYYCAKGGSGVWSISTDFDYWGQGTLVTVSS VL: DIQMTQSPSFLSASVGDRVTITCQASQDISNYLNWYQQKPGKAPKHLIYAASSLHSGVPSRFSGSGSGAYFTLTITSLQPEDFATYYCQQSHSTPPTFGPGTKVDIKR
Result block: 2.99
